# TARGET_OF_ASSAY: cytochrome P450 2D6 (CYP2D6) (Homo sapiens)
# Sequence (P10635 whole entry): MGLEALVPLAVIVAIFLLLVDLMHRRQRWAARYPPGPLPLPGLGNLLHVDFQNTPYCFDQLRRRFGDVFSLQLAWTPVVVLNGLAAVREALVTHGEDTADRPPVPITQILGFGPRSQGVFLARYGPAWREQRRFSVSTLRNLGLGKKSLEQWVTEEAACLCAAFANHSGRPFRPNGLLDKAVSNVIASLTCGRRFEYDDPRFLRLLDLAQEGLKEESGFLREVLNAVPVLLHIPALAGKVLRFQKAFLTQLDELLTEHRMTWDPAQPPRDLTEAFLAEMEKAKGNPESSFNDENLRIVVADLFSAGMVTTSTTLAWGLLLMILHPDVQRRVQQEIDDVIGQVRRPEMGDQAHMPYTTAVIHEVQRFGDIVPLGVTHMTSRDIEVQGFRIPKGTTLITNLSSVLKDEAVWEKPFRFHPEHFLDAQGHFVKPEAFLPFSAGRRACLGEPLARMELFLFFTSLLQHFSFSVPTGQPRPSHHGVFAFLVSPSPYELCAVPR

MOLECULE	TARGET_OF_ASSAY	UNIT_TEXT	Kd
CCc1nc(C)c(CN2CCN(c3cc(C(F)(F)F)ccn3)CC2)[nH]1 [EMTPP]	cytochrome P450 2D6 (CYP2D6) (Homo sapiens)	µM	29.8
